Every entry's value here was drawn from paper PMC8612954.

Target: bovine serum albumin (BSA) (Bos taurus, UniProt P02769)
Sequence (P02769 25-607): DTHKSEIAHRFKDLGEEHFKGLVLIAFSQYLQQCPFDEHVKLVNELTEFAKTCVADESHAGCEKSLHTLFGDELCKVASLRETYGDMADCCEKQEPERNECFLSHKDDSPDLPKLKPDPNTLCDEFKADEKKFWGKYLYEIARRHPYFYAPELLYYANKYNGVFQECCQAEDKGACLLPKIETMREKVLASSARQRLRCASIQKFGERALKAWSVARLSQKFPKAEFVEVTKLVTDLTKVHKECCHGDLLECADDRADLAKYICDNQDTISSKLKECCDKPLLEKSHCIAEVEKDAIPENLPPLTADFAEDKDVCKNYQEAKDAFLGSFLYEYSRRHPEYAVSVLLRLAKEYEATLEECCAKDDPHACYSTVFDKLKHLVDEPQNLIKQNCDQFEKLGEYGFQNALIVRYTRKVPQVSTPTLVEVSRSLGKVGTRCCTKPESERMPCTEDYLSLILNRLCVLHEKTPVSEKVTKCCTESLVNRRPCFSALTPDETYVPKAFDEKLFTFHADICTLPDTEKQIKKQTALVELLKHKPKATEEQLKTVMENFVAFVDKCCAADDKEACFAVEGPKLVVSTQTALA
Experiment: Fluorescence quenching of BSA by PFAS
Format: binding
Settings: Hill model fit; 25°C and 35°C, independent of temperature
Measure Name: nHill (Hill coefficient, binding cooperativity)

O=C(O)C(F)(OC(F)(F)C(F)(F)C(F)(F)F)C(F)(F)F (stereo not shown); noncooperative
O=C(O)C(F)(F)C(F)(F)C(F)(F)C(F)(F)C(F)(F)C(F)(F)C(F)(F)C(F)(F)F; noncooperative
O=S(=O)(O)C(F)(F)C(F)(F)C(F)(F)C(F)(F)F; < 1
O=C(O)C(F)(F)C(F)(F)C(F)(F)C(F)(F)C(F)(F)C(F)(F)C(F)(F)C(F)(F)C(F)(F)F; < 1

###

Target: bovine serum albumin (BSA) (Bos taurus, UniProt P02769)
Experiment: Equilibrium dialysis
Assay type: binding
Conditions: 37°C, 10 µM BSA in PBS; standard error in parentheses
Recorded f (fraction of bound PFAS), one value per entry.

Record excerpt, results attached:
O=C(O)C(F)(F)C(F)(F)C(F)(F)C(F)(F)C(F)(F)C(F)(F)C(F)(F)C(F)(F)F; 0.975 (0.005)
O=S(=O)(O)C(F)(F)C(F)(F)C(F)(F)C(F)(F)C(F)(F)C(F)(F)F; 0.842 (0.008)

Prompt: # returns recorded f (fraction of bound PFAS) (system: bovine serum albumin (BSA) (Bos taurus, UniProt P02769)) for O=S(=O)(O)C(F)(F)C(F)(F)C(F)(F)C(F)(F)C(F)(F)C(F)(F)C(F)(F)C(F)(F)F
Completion: 0.942 (0.004)

###

Biological target: bovine serum albumin (BSA) (Bos taurus, UniProt P02769)
Assay: Fluorescence quenching of BSA by PFAS
Format: binding
Settings: maximum shift on PFAS binding (Figure S5)
Measure Name: shift in wavelength of maximum fluorescence emission of BSA (nm)
# output: bare number, implied unit nm

Known shift in wavelength of maximum fluorescence emission of BSA results, listed for orientation:
O=S(=O)(O)C(F)(F)C(F)(F)C(F)(F)C(F)(F)C(F)(F)C(F)(F)F; −10
O=C(O)C(F)(F)C(F)(F)C(F)(F)C(F)(F)C(F)(F)C(F)(F)C(F)(F)C(F)(F)C(F)(F)F; −10
O=S(=O)(O)C(F)(F)C(F)(F)C(F)(F)C(F)(F)C(F)(F)C(F)(F)C(F)(F)C(F)(F)F; −7

Prompt: Return shift in wavelength of maximum fluorescence emission of BSA measured with bovine serum albumin (BSA) (Bos taurus, UniProt P02769) given this compound: O=C(O)C(F)(F)C(F)(F)C(F)(F)C(F)(F)C(F)(F)C(F)(F)C(F)(F)C(F)(F)F
Completion: −13

###

Reported KPW (protein/water partition coefficient) values follow for various compounds
Target: bovine serum albumin (BSA) (Bos taurus, UniProt P02769)
Assay: Equilibrium dialysis
Assay type: binding
Details: 37°C, PFAS:BSA molar ratio 0.1:1; standard error in parentheses

Prompt: For the compound shown here, O=C(O)C(F)(F)C(F)(F)C(F)(F)C(F)(F)C(F)(F)C(F)(F)C(F)(F)C(F)(F)C(F)(F)F , give the reported KPW (protein/water partition coefficient).
Completion: 12.66 (3.23) 10^5

Prompt: # input compound: O=C(O)C(F)(F)C(F)(F)C(F)(F)C(F)(F)C(F)(F)C(F)(F)C(F)(F)F ; wanted: its KPW (protein/water partition coefficient)
Completion: 0.66 (0.13) 10^5

Prompt: Requested field: KPW (protein/water partition coefficient). Item: O=S(=O)(O)C(F)(F)C(F)(F)C(F)(F)C(F)(F)C(F)(F)C(F)(F)F
Completion: 1.11 (0.06) 10^5

Prompt: Can you look up the measured KPW (protein/water partition coefficient) of O=S(=O)(O)C(F)(F)C(F)(F)C(F)(F)C(F)(F)C(F)(F)C(F)(F)C(F)(F)C(F)(F)F for me?
Completion: 3.39 (0.27) 10^5

Prompt: Bench note: what KPW (protein/water partition coefficient) did O=C(O)C(F)(F)C(F)(F)C(F)(F)C(F)(F)C(F)(F)C(F)(F)C(F)(F)C(F)(F)F show?
Completion: 8.52 (1.62) 10^5
